Hey, just so you know, these numbers are from patent US20070244048A1.

- STUDY SYSTEM: T1, human NMUR1 (human, UniProt Q9HB89 1-426)
- T1 sequence (looked up): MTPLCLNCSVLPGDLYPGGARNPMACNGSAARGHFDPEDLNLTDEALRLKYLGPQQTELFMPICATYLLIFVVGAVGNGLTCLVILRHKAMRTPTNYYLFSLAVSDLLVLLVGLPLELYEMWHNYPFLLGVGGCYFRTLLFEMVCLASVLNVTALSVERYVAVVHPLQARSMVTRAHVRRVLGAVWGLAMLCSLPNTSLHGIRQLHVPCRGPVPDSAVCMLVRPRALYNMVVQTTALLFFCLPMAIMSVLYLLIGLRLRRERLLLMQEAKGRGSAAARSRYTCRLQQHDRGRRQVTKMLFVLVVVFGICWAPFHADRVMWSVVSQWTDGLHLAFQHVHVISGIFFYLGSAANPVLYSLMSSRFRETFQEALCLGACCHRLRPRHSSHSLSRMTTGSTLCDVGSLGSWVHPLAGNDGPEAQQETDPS
- MEASUREMENT PROTOCOL: cell-based or functional assay
Non-standard residues stand in square brackets, D forms with d. No end group written: not given here. hArg = N=C(N)NCCCC[C@H](N)C(=O)O
Measured % activity by item
Write the number in % without appending the unit.

Request: Fill blank: measured % activity of the binder FWLFRP[hArg]N-NH2 (N-terminus assumed; SMILES CC(C)C[C@H](NC(=O)[C@H](Cc1c[nH]c2ccccc12)NC(=O)[C@@H](N)Cc1ccccc1)C(=O)N[C@@H](Cc1ccccc1)C(=O)N[C@@H](CCCNC(=N)N)C(=O)N1CCC[C@H]1C(=O)N[C@@H](CCCCNC(=N)N)C(=O)N[C@@H](CC(N)=O)C(N)=O) [neuromedin U receptor agonist I] is ____.
Response: 7

Request: Look at this binder and give its reported % activity. FWLFRA[hArg]N-NH2 (N-terminus assumed; SMILES CC(C)C[C@H](NC(=O)[C@H](Cc1c[nH]c2ccccc12)NC(=O)[C@@H](N)Cc1ccccc1)C(=O)N[C@@H](Cc1ccccc1)C(=O)N[C@@H](CCCNC(=N)N)C(=O)N[C@@H](C)C(=O)N[C@@H](CCCCNC(=N)N)C(=O)N[C@@H](CC(N)=O)C(N)=O) [neuromedin U receptor agonist J]
Response: 0

Request: Using the record for FWLFRARN-NH2 [neuromedin U receptor agonist L] , report its % activity.
Response: 74

Request: Which % activity is reported for this binder? FALFRPRN-NH2 [neuromedin U receptor agonist N]
Response: 87

Now let's try a different one.
Request: Form field: reported % activity of FRVDEEFQSPFASQSRGYFLFRPRN-NH2 (also called hNMU-25; native hNMU) [human NMU-25]
Response: 100
